experimental-system: DNA-dependent protein kinase catalytic subunit (Homo sapiens, UniProt P78527)
Sequence (P78527 whole entry): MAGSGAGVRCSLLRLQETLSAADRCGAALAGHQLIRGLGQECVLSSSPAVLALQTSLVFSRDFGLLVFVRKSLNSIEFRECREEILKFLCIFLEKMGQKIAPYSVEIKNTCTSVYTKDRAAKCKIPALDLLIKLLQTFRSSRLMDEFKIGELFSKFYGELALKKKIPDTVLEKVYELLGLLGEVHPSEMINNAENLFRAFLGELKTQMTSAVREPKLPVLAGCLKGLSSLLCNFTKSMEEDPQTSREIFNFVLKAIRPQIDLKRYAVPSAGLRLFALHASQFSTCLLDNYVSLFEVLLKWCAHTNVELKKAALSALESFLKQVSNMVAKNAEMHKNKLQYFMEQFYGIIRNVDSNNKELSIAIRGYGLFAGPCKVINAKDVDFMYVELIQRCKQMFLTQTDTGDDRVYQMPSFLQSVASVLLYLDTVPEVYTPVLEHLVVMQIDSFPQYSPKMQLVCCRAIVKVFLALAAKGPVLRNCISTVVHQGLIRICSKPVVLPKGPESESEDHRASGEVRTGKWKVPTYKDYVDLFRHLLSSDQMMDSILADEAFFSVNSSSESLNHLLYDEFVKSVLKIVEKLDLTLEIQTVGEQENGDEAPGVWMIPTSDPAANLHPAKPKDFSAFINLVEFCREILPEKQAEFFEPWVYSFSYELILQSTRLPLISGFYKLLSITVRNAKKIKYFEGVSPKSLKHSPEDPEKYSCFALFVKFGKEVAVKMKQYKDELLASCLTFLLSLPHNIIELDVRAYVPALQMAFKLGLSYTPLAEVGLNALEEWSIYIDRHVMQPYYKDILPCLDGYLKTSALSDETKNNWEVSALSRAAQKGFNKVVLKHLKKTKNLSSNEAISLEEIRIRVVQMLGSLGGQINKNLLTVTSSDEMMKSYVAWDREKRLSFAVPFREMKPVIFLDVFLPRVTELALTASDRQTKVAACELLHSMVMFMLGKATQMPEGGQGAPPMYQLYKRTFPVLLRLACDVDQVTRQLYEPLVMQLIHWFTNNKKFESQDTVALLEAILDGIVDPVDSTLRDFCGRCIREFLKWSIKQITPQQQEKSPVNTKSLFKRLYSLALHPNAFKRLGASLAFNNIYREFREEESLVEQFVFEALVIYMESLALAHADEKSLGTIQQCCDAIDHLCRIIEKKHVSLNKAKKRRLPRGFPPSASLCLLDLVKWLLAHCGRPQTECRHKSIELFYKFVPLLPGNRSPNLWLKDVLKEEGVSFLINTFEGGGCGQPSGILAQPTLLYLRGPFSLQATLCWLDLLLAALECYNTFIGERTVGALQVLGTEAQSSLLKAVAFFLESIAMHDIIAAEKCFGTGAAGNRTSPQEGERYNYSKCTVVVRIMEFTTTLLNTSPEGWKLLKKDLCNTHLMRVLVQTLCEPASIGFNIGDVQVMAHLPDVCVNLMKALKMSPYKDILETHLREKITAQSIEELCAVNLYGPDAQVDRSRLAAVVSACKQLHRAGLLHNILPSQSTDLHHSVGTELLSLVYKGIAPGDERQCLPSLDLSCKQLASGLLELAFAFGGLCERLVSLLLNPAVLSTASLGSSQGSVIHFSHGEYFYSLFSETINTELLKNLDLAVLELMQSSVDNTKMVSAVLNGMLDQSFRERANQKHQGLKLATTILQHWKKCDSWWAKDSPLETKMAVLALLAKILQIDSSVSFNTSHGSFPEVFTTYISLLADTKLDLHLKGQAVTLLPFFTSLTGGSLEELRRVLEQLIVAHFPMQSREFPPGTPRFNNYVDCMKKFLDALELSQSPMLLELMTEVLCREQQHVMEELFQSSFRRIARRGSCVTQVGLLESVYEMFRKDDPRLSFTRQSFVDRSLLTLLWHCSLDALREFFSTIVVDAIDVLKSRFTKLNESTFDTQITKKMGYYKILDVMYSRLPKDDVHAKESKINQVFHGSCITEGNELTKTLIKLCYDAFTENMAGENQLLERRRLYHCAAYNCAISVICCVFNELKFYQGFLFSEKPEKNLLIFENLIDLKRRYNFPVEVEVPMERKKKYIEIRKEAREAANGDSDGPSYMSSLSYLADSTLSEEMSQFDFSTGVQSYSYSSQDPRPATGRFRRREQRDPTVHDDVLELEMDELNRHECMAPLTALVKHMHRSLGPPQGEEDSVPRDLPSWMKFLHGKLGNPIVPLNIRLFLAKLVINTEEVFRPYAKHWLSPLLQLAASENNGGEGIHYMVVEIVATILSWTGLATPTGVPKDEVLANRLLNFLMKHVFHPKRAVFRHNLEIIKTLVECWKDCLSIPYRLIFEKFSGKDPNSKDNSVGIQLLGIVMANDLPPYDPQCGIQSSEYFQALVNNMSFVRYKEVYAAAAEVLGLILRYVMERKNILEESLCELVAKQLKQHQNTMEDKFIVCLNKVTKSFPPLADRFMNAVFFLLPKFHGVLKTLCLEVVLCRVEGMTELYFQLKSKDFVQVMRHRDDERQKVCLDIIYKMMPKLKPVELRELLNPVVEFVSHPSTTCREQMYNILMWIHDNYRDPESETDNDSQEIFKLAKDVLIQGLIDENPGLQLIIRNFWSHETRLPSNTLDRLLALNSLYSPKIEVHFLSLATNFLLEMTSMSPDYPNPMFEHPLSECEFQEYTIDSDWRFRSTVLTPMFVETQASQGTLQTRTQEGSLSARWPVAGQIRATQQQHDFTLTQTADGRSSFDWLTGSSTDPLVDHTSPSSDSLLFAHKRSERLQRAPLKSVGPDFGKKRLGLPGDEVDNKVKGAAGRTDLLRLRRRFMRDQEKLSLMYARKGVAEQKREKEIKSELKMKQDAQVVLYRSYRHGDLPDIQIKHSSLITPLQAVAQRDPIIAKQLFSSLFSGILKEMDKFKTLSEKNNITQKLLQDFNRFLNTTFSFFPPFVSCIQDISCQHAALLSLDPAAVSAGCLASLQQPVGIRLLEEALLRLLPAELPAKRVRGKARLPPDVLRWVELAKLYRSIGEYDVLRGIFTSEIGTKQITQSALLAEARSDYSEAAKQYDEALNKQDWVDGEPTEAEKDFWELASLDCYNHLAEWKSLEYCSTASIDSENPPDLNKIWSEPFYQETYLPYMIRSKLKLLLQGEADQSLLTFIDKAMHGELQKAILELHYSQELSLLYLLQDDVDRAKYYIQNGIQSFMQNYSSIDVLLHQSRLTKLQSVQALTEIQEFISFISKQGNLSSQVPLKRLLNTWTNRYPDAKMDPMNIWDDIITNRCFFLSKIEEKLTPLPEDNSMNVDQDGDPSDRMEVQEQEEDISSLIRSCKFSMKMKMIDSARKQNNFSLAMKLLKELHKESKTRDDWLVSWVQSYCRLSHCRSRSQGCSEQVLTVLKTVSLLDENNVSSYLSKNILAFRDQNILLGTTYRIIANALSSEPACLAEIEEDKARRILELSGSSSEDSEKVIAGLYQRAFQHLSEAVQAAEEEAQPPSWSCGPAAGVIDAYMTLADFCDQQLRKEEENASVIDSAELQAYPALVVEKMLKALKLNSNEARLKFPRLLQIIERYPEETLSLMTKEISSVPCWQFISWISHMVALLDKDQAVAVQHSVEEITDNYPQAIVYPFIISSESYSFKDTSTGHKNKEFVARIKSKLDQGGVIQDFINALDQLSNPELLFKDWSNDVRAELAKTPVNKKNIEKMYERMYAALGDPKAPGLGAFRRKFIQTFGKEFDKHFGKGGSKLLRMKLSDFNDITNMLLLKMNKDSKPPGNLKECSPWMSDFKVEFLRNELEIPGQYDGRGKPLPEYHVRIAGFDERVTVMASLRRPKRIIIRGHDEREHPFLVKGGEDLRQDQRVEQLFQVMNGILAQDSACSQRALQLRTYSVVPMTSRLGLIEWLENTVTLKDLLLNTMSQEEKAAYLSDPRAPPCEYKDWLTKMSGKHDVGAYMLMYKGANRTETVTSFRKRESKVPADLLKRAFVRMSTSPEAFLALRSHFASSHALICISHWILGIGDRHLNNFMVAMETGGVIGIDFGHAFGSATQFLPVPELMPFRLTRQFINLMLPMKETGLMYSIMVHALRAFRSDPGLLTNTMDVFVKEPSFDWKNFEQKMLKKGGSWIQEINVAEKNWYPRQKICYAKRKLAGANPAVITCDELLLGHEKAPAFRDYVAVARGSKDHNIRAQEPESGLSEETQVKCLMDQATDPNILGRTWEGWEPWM
readout: IC50 (nM)
Return type: number; implicit unit nM.

Noted IC50 for CC(C)NCCOc1ncc(-c2cc3c4c(cnc3cc2F)N(C)C(=O)C42CCC2)cc1NS(C)(=O)=O , tested on DNA-dependent protein kinase catalytic subunit (Homo sapiens, UniProt P78527): 0.89
